test: Intrinsic clearance in cynomolgus monkey liver microsomes assessed per mg protein at 1 uM measured after 60 mins; type: ADME, Macaca fascicularis, Microsome; conditions: read-out: CLH
REPORTED_ENDPOINT: microsomal CLint at 1 µM (µL/min/mg)

sample_smiles=CCCC[C@@H](CCO)Nc1nc(N)ncc1OC result_units=µL/min/mg measured_result=8

---

test system: human MDR1; assay: Apparent permeability across apical to basolateral side in MDCK cells expressing human MDR1 at 1 uM by LC-MS/MS analysis; format: ADME, cell-based, Canis lupus familiaris; conditions: dog
REPORTED_ENDPOINT: Papp A→B at 1 µM (×10⁻⁶ cm/s)

sample_smiles=CCCC[C@@H](CCO)Nc1nc(N)ncc1OC reported_endpoint="Papp A→B at 1 µM" measured_result=23
